- measured-target: purified MmpL3tb protein (Mycobacterium tuberculosis)
- test-description: Surface Plasmon Resonance binding to immobilized MmpL3tb
- reported-conditions: SPR global fit
reported-metric: ka2

// worked examples, ka2 included
{"compound": "CC(C)=CCC/C(C)=C/CNCCNC1C2CC3CC(C2)CC1C3 (stereo not shown)", "measured-target": "purified MmpL3tb protein (Mycobacterium tuberculosis)", "reported-metric": "ka2", "experimental-value": "0.025 1/RU*s"}
{"compound": "Cc1c(CN2CCN(C)CC2)cc(-c2ccc(Cl)cc2)n1-c1ccc(Cl)cc1", "measured-target": "purified MmpL3tb protein (Mycobacterium tuberculosis)", "reported-metric": "ka2", "experimental-value": "0.005 1/RU*s"}
{"compound": "C[C@@H]1C(NC(=O)c2cc3cc(OCc4cn(CCCCCCNC(=O)c5ccc(-c6c7ccc(=[N+](C)C)cc-7oc7cc(N(C)C)ccc67)c(C(=O)O)c5)nn4)ccc3[nH]2)C[C@H]2C[C@@H]1C2(C)C (stereo partly shown)", "measured-target": "purified MmpL3tb protein (Mycobacterium tuberculosis)", "reported-metric": "ka2", "experimental-value": "540.582 1/RU*s"}

Query: ka2; subject: "CN(C)c1ccc2c(-c3ccc(C(=O)NCCCCCCn4cc(COc5ccc6[nH]c(C(=O)NC7CCCCCCC7)cc6c5)nn4)cc3C(=O)O)c3ccc(=[N+](C)C)cc-3oc2c1"
Result: 0.039 1/RU*s

---

- measured-target: purified MmpL3tb protein (Mycobacterium tuberculosis)
- test-description: Surface Plasmon Resonance binding to immobilized MmpL3tb
- reported-conditions: SPR sensorgrams fit globally

{"compound": "Cc1c(CN2CCN(C)CC2)cc(-c2ccc(Cl)cc2)n1-c1ccc(Cl)cc1", "Model (best-fit kinetic model)": "Two-state reaction"}
{"compound": "CC(C)=CCC/C(C)=C/CNCCNC1C2CC3CC(C2)CC1C3 (stereo not shown)", "Model (best-fit kinetic model)": "Two-state reaction"}
{"compound": "CN(C)c1ccc2c(-c3ccc(C(=O)NCCCCCCn4cc(COc5ccc6[nH]c(C(=O)NC7CCCCCCC7)cc6c5)nn4)cc3C(=O)O)c3ccc(=[N+](C)C)cc-3oc2c1", "Model (best-fit kinetic model)": "Two-state reaction"}

---

- Tested on: MsmgΔmmpL3 expressing mmpL3tb S288T
- Type: cell-based, Mycobacterium smegmatis
Marks after values point to notes of the source that are not given here.
reported-metric: MIC

// worked examples, MIC included
{"molecule": "C[C@@H]1C(NC(=O)c2cc3cc(OCc4cn(CCCCCCNC(=O)c5ccc(-c6c7ccc(=[N+](C)C)cc-7oc7cc(N(C)C)ccc67)c(C(=O)O)c5)nn4)ccc3[nH]2)C[C@H]2C[C@@H]1C2(C)C (stereo partly drawn)", "measured-target": "MsmgΔmmpL3 expressing mmpL3tb S288T", "MIC": "4 µg/mL"}
{"molecule": "CC(C)=CCC/C(C)=C/CNCCNC1C2CC3CC(C2)CC1C3 (stereo not drawn)", "measured-target": "MsmgΔmmpL3 expressing mmpL3tb S288T", "MIC": "3.13^a μg/mL"}
{"molecule": "C[C@@H]1[C@H]2C[C@@H](C[C@H]1NC(=O)c1cc3ccccc3[nH]1)C2(C)C", "measured-target": "MsmgΔmmpL3 expressing mmpL3tb S288T", "MIC": "1.28^a μg/mL"}
{"molecule": "CN(C)c1ccc2c(-c3ccc(C(=O)NCCCCCCn4cc(COc5ccc6[nH]c(C(=O)NC7CCCCCCC7)cc6c5)nn4)cc3C(=O)O)c3ccc(=[N+](C)C)cc-3oc2c1", "measured-target": "MsmgΔmmpL3 expressing mmpL3tb S288T", "MIC": ">32^b μg/mL"}
{"molecule": "Cc1c(CN2CCN(C)CC2)cc(-c2ccc(Cl)cc2)n1-c1ccc(Cl)cc1", "measured-target": "MsmgΔmmpL3 expressing mmpL3tb S288T", "MIC": "25.0^b μg/mL"}

Below: the item to evaluate.
Query: MIC; subject: "Cc1cc(C)c2cc(C(=O)NC3CCCCCCC3)[nH]c2c1"
Result: 0.2^b μg/mL
